target: UniProtKB P10635
Sequence (P10635 whole entry): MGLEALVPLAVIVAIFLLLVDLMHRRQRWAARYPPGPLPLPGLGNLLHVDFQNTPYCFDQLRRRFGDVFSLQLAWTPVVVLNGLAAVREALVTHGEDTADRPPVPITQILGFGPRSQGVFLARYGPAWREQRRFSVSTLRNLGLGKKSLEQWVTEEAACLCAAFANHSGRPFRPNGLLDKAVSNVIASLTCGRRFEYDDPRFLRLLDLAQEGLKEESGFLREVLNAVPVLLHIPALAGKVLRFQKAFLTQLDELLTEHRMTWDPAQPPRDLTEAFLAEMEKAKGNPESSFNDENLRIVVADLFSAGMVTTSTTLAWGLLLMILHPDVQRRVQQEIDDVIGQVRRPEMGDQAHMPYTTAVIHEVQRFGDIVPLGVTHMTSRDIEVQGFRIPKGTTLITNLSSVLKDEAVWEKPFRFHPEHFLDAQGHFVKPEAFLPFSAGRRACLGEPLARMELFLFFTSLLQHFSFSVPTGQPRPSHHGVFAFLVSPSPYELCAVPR
pIC50: −log10 of the molar value.
test readout: pIC50

Solved cases (2 shown):
>  <entry smiles>
CC1(C)C(=O)N(c2ccc(C(F)(F)F)cc2)C(=S)N1Cc1ccc(S(N)(=O)=O)c(F)c1

>  <pIC50>
< 5.00

$$$$
>  <entry smiles>
CC1(C)C(=O)N(c2ccc(Oc3ccccc3)cc2)C(=S)N1Cc1ccc(S(N)(=O)=O)c(F)c1

>  <pIC50>
< 5.00

$$$$

Let's switch to this compound now.
Write down the reported pIC50 of "CC1(C)C(=O)N(c2cc(C(F)(F)F)cc(C(F)(F)F)c2)C(=S)N1Cc1ccc(S(N)(=O)=O)c(F)c1" , test system: UniProtKB P10635. < 5.00

---

Reported remaining at 5 min by item:
assay: Plasma stability in human plasma assessed as compound remaining measured after 5 mins; format: ADME, cell-free; settings: read-out: Stability
Provide the reading as a plain figure in %.

I'd like to know its remaining at 5 min. The compound in question is "COc1ccc(N2C(=O)C(C)(C)N(Cc3ccc(C)c(C)c3)C2=S)cc1" 98.9

I'd like to know its remaining at 5 min. The compound in question is "CC1(C)C(=O)N(c2cc(C(F)(F)F)cc(C(F)(F)F)c2)C(=S)N1Cc1ccc(S(N)(=O)=O)c(F)c1" 91.3

I'd like to know its remaining at 5 min. The compound in question is "CC(C)(C)c1ccc(N2C(=O)C(C)(C)N(Cc3ccc(S(N)(=O)=O)c(F)c3)C2=S)cc1" 96.7

---

assay: Plasma stability in human plasma assessed as compound remaining measured after 30 mins; type: ADME, cell-free; settings: read-out: Stability
test readout: remaining at 0.5 h (%)
Provide the reading as a plain figure in %.

Solved cases (8 shown):
>  <entry smiles>
COc1ccc(N2C(=O)C(C)(C)N(Cc3ccc(C)c(C)c3)C2=S)cc1

>  <remaining at 0.5 h / %>
96.2

$$$$
>  <entry smiles>
Cc1ccc(CN2C(=S)N(c3ccc(C(C)(C)C)cc3)C(=O)C2(C)C)cc1C

>  <remaining at 0.5 h / %>
102

$$$$
>  <entry smiles>
COc1ccc(N2C(=O)/C(=C/c3ccccc3C(F)(F)F)SC2=S)cc1

>  <remaining at 0.5 h / %>
23.9

$$$$
>  <entry smiles>
COc1ccc(N2C(=O)C(C)(C)N(Cc3ccc(Br)c(C)c3)C2=S)cc1

>  <remaining at 0.5 h / %>
104

$$$$
>  <entry smiles>
CC1(C)C(=O)N(c2ccc(C(F)(F)F)cc2)C(=S)N1Cc1ccc(S(N)(=O)=O)c(F)c1

>  <remaining at 0.5 h / %>
104

$$$$
>  <entry smiles>
CC(C)[N+](C)(CCOC(=O)C1c2ccccc2Oc2ccccc21)C(C)C

>  <remaining at 0.5 h / %>
37.4

$$$$
>  <entry smiles>
CC(C)(C)c1ccc(N2C(=O)C(C)(C)N(Cc3ccc(S(N)(=O)=O)c(F)c3)C2=S)cc1

>  <remaining at 0.5 h / %>
98.2

$$$$
>  <entry smiles>
CC1(C)C(=O)N(c2cc(C(F)(F)F)cc(C(F)(F)F)c2)C(=S)N1Cc1ccc(S(N)(=O)=O)c(F)c1

>  <remaining at 0.5 h / %>
93.3

$$$$

Let's switch to this molecule now.
I'd like to know its remaining at 0.5 h. The molecule in question is "CC1(C)C(=O)N(c2ccc(Oc3ccccc3)cc2)C(=S)N1Cc1ccc(S(N)(=O)=O)c(F)c1" 92.3

---

test: Plasma stability in human plasma assessed as compound remaining measured after 120 mins; format: ADME, cell-free; conditions: read-out: Stability
Reported remaining at 2 h by item:

I'd like to know its remaining at 2 h. The molecule in question is "CC1(C)C(=O)N(c2ccc(C(F)(F)F)cc2)C(=S)N1Cc1ccc(S(N)(=O)=O)c(F)c1" 96.9%

I'd like to know its remaining at 2 h. The molecule in question is "CC1(C)C(=O)N(c2cc(C(F)(F)F)cc(C(F)(F)F)c2)C(=S)N1Cc1ccc(S(N)(=O)=O)c(F)c1" 91.8%

I'd like to know its remaining at 2 h. The molecule in question is "CC(C)(C)c1ccc(N2C(=O)C(C)(C)N(Cc3ccc(S(N)(=O)=O)c(F)c3)C2=S)cc1" 82.5%

I'd like to know its remaining at 2 h. The molecule in question is "CC(C)[N+](C)(CCOC(=O)C1c2ccccc2Oc2ccccc21)C(C)C" 2.91%

---

Reported remaining at 0.25 h by item:
assay: Plasma stability in human plasma assessed as compound remaining measured after 15 mins; type: ADME, cell-free; details: read-out: Stability
Provide the reading as a plain figure in %.

Solved cases (4 shown):
>  <compound>
COc1ccc(N2C(=O)C(C)(C)N(Cc3ccc(C)c(C)c3)C2=S)cc1

>  <uom>
%

>  <remaining at 0.25 h>
105

$$$$
>  <compound>
CC1(C)C(=O)N(c2ccc(Oc3ccccc3)cc2)C(=S)N1Cc1ccc(S(N)(=O)=O)c(F)c1

>  <uom>
%

>  <remaining at 0.25 h>
101

$$$$
>  <compound>
COc1ccc(N2C(=O)/C(=C/c3ccccc3C(F)(F)F)SC2=S)cc1

>  <uom>
%

>  <remaining at 0.25 h>
106

$$$$
>  <compound>
CC(C)[N+](C)(CCOC(=O)C1c2ccccc2Oc2ccccc21)C(C)C [PROPANTHELINE]

>  <uom>
%

>  <remaining at 0.25 h>
58.5

$$$$

I'd like to know its remaining at 0.25 h. The compound in question is "COc1ccc(N2C(=O)C(C)(C)N(Cc3ccc(Br)c(C)c3)C2=S)cc1" 96.6

---

Reported IC50 by item:
biological target: Cytochrome P450 2C9 (Homo sapiens)
Sequence (P11712 whole entry): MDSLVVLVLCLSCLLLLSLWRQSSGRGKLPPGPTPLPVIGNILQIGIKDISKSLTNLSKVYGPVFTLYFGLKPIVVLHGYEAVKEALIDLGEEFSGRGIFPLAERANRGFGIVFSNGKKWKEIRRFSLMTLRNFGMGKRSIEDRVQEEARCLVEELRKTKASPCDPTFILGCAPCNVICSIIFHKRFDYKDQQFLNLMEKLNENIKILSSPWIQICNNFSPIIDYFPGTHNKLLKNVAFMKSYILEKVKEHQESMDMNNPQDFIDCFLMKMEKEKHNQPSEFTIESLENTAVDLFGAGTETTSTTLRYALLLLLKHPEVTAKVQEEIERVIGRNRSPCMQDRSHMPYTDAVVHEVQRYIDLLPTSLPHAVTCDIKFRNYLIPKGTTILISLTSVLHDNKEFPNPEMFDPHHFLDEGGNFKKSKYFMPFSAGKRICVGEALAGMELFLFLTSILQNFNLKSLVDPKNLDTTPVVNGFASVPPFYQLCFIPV
Include the unit right after the number.

>  <entry smiles>
COc1ccc(N2C(=O)C(C)(C)N(Cc3ccc(C)c(C)c3)C2=S)cc1

>  <IC50>
4.57 µM

$$$$
>  <entry smiles>
COc1ccc(N2C(=O)C(C)(C)N(Cc3ccc(Br)c(C)c3)C2=S)cc1

>  <IC50>
6.15 µM

$$$$
>  <entry smiles>
CC1(C)C(=O)N(c2ccc(Oc3ccccc3)cc2)C(=S)N1Cc1ccc(S(N)(=O)=O)c(F)c1

>  <IC50>
7.73 µM

$$$$
>  <entry smiles>
CC1(C)C(=O)N(c2cc(C(F)(F)F)cc(C(F)(F)F)c2)C(=S)N1Cc1ccc(S(N)(=O)=O)c(F)c1

>  <IC50>
10.2 µM

$$$$

Let's switch to this compound now.
I'd like to know its IC50. The compound in question is "COc1ccc(N2C(=O)/C(=C/c3ccccc3C(F)(F)F)SC2=S)cc1" 4.65 µM

---

assay: Plasma stability in human plasma assessed as half life; type: ADME, cell-free
Reported half-life by item:
Provide the reading as a plain figure in min.

Solved cases (3 shown):
>  <entry smiles>
COc1ccc(N2C(=O)/C(=C/c3ccccc3C(F)(F)F)SC2=S)cc1

>  <half-life, min>
20.3

$$$$
>  <entry smiles>
COc1ccc(N2C(=O)C(C)(C)N(Cc3ccc(Br)c(C)c3)C2=S)cc1

>  <half-life, min>
18000

$$$$
>  <entry smiles>
Cc1ccc(CN2C(=S)N(c3ccc(C(C)(C)C)cc3)C(=O)C2(C)C)cc1C

>  <half-life, min>
1950

$$$$

I'd like to know its half-life. The compound in question is "CC(C)[N+](C)(CCOC(=O)C1c2ccccc2Oc2ccccc21)C(C)C" 23.2

I'd like to know its half-life. The compound in question is "CC(C)(C)c1ccc(N2C(=O)C(C)(C)N(Cc3ccc(S(N)(=O)=O)c(F)c3)C2=S)cc1" 602

---

assay: Plasma stability in human plasma assessed as compound remaining measured after 5 mins; assay type: ADME, cell-free; details: read-out: Stability
Reported remaining at 5 min by item:
Provide the reading as a plain figure in %.

>  <compound>
CC(C)[N+](C)(CCOC(=O)C1c2ccccc2Oc2ccccc21)C(C)C [PROPANTHELINE]

>  <uom>
%

>  <remaining at 5 min>
88

$$$$

I'd like to know its remaining at 5 min. The compound in question is "CC1(C)C(=O)N(c2ccc(Oc3ccccc3)cc2)C(=S)N1Cc1ccc(S(N)(=O)=O)c(F)c1" 97.2

I'd like to know its remaining at 5 min. The compound in question is "CC1(C)C(=O)N(c2ccc(C(F)(F)F)cc2)C(=S)N1Cc1ccc(S(N)(=O)=O)c(F)c1" 100

---

assay: Plasma stability in human plasma assessed as compound remaining measured after 5 mins; format: ADME, cell-free; settings: read-out: Stability
test readout: remaining at 5 min (%)
Provide the reading as a plain figure in %.

Solved cases (2 shown):
>  <entry smiles>
COc1ccc(N2C(=O)C(C)(C)N(Cc3ccc(Br)c(C)c3)C2=S)cc1

>  <remaining at 5 min [%]>
99.2

$$$$
>  <entry smiles>
COc1ccc(N2C(=O)/C(=C/c3ccccc3C(F)(F)F)SC2=S)cc1

>  <remaining at 5 min [%]>
112

$$$$

I'd like to know its remaining at 5 min. The compound in question is "Cc1ccc(CN2C(=S)N(c3ccc(C(C)(C)C)cc3)C(=O)C2(C)C)cc1C" 99.8
